Hello, the source for this data is patent US20210330611A1, in case you need it.

# System: LPS-induced microglia activation
# EXPERIMENT: Image-based assay of LPS-induced microglia activation (HTS and dose response)
# Assay type: cell-based, rat
# RUN_PARAMETERS: primary HTS, 10 μM, LPS-stimulated primary microglia
LPS % inhibition by entry:

COMPOUND	UNITS_SYMBOL	LPS % inhibition
CC(C)(O/N=C(\C(=O)N[C@@H]1C(=O)N2C(C(=O)[O-])=C(C[n+]3ccccc3)CS[C@H]12)c1csc(N)n1)C(=O)O [Ceftazidime]	%	30
CN(C)CCCC1(c2ccc(F)cc2)OCc2cc(C#N)ccc21 (stereo not shown) [Citalopram]	%	8
O=C1c2ccccc2C(=O)C1c1ccc(Cl)cc1 [Chlorindione]	%	10
CC=CC1=C(C(=O)O)N2C(=O)[C@@H](NC(=O)[C@H](N)c3ccc(O)cc3)[C@H]2SC1 [Cefprozil]	%	14

----------
LPS % cell toxicity by entry:
# Test system: primary rat microglia
# EXPERIMENT: Cell toxicity (dead cells, size <150 μm2) in LPS assay
# RUN_PARAMETERS: primary microglia HTS, 10 μM, LPS assay, cell size <150 μm^2 as marker of toxicity

COMPOUND	LPS % cell toxicity, %
c1ccc(CC2=NCCN2)cc1 [Tolazoline, Priscoline]	0
COC(=O)[C@@H]1[C@H]2C[C@H]3c4[nH]c5ccccc5c4CCN3C[C@@H]2CC[C@@H]1O [Yohimbine]	0
COc1cc(NS(=O)(=O)c2ccc(N)cc2)nc(OC)n1 [Sulfadimethoxine]	0
CC(C)N1CCN(c2ccc(OCC3COC(Cn4cncn4)(c4ccc(Cl)cc4Cl)O3)cc2)CC1 (centres unmarked) [Terconazole]	0
O=C1C(CC[S+]([O-])c2ccccc2)C(=O)N(c2ccccc2)N1c1ccccc1 (centres unmarked) [Sulfinpyrazone]	1
C[N+](C)(C)CCOC(=O)CCC(=O)OCC[N+](C)(C)C [Succinylcholine]	0
C[C@@H]1O[C@@H](OC[C@H]2O[C@@H](Oc3c(-c4ccc(OCCO)c(OCCO)c4)oc4cc(OCCO)cc(O)c4c3=O)[C@H](O)[C@@H](O)[C@@H]2O)[C@H](O)[C@H](O)[C@H]1O [Troxerutin]	0
Cc1noc(NS(=O)(=O)c2ccc(N)cc2)c1C [Sulfisoxazole]	0

----------
# System: LPS-induced microglia activation
# EXPERIMENT: Image-based assay of LPS-induced microglia activation (HTS and dose response)
# Format: cell-based, rat
# RUN_PARAMETERS: Rattus norvegicus, Microglia, primary microglia HTS, LPS stimulation, compounds at 10 μM; read-out: LPS % inhibition
Where a SMILES comes first, the peptide text is derived from it.
Short version: inhibition at 10 µM at least 10% is Yes, less is No.

COMPOUND	DISCRETE_LABEL
CCN1C(=O)NC(c2ccccc2)C1=O (stereo not shown)	Yes
CCOC(=O)/C=C(C)/C=C/C=C(C)/C=C/c1c(C)cc(OC)c(C)c1C [Etretinate]	No
COc1ccc(-c2ccc3cc(C(=O)O)ccc3c2)cc1C12CC3CC(CC(C3)C1)C2	Yes
Oc1c(I)cc(I)c2cccnc12 [Diiodohydroxyquinoline]	Yes
C=CC[C@]1(O)CC[C@H]2[C@@H]3CCC4=CC(=O)CCC4=C3C=C[C@@]21C	Yes
CCOC(=S)SSC(=S)OCC	Yes
OC(CCCN1CCCCC1)(c1ccccc1)c1ccccc1	No
N#CC(c1ccc(Cl)cc1)c1c(Cl)cc(-n2ncc(=O)[nH]c2=O)cc1Cl (stereo not shown)	Yes
O=C(O[C@@H]1C[C@@H]2C[C@H]3C[C@H](C1)N2CC3=O)c1c[nH]c2ccccc12	No
N[C@@H]1CON=C1O	Yes
COc1ccc(C(=O)N2CCCC2=O)cc1	No
CN(CCOc1ccc(NS(C)(=O)=O)cc1)CCc1ccc(NS(C)(=O)=O)cc1 [Dofetilide]	No
Cc1ccccc1N1CCN(CCc2nnc3n2CCCC3)CC1	Yes
CCN1CCCC1CNC(=O)c1cc(S(=O)(=O)CC)c(N)cc1OC (stereo not shown) [Amisulpride, reference compound]	Yes
CCCCC[C@H](O)/C=C/[C@@H]1[C@@H](C/C=C\CCCC(=O)O)[C@@H](O)C[C@H]1O	Yes
CC/C=C\C/C=C\C/C=C\C/C=C\C/C=C\C/C=C\CCC(=O)O	Yes
CC(C)N(CCC(C(N)=O)(c1ccccc1)c1ccccn1)C(C)C (stereo not shown) [Disopyramide]	No
CC(C)c1ccc2oc3nc(N)c(C(=O)O)cc3c(=O)c2c1	No
COC(=O)[C@H](Cc1ccccc1)NC(=O)[C@@H](N)CC(=O)O [Aspartame] (H-Asp-Phe-OMe)	No
